# Target Or Test System: M-phase inducer phosphatase 2 (Homo sapiens, UniProt P30305)
# Sequence (P30305 whole entry): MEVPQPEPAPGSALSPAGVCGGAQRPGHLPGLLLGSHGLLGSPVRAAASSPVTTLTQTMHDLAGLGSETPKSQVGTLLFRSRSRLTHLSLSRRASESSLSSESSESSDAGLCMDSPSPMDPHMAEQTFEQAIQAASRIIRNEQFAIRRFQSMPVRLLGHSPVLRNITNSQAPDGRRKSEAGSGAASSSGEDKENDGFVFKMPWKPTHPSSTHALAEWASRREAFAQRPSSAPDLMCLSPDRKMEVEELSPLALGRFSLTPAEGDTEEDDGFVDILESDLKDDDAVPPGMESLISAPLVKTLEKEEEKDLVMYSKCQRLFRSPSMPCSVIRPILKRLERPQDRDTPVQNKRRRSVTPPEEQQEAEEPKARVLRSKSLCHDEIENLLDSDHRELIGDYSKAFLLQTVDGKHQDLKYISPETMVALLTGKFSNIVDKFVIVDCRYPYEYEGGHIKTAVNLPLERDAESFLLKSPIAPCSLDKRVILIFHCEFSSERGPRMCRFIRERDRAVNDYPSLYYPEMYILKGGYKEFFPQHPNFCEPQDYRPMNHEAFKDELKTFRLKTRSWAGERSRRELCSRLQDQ
# Protocol Text: In vitro inhibitory activity against human recombinant Cdc25B phosphatase enzyme
Attribute Measured: pIC50
Keep in mind that pIC50 stands for -log10 of concentration in molar terms.

Below, each entry is followed by its recorded pIC50 result.
[
  {
    "Smiles Record": "CCc1sc(NS(=O)(=O)/C=C/c2ccc([N+](=O)[O-])cc2)nc1-c1ccccc1",
    "Attribute Measured": "pIC50",
    "Numeric Readout": 4.06
  },
  {
    "Smiles Record": "O=S(=O)(/C=C/c1ccc(F)c(F)c1)Nc1nc(-c2ccccc2)c(-c2ccccc2)s1",
    "Attribute Measured": "pIC50",
    "Numeric Readout": 4.14
  },
  {
    "Smiles Record": "CCCc1sc(NS(=O)(=O)/C=C/c2ccccc2Cl)nc1-c1ccc(Cl)cc1",
    "Attribute Measured": "pIC50",
    "Numeric Readout": 4.59
  },
  {
    "Smiles Record": "CCc1sc(NS(=O)(=O)/C=C/c2ccc3ccccc3c2)nc1-c1ccccc1",
    "Attribute Measured": "pIC50",
    "Numeric Readout": 4.05
  },
  {
    "Smiles Record": "O=[N+]([O-])c1ccc(/C=C/S(=O)(=O)Nc2nc(-c3ccccc3)c(-c3ccccc3)s2)cc1",
    "Attribute Measured": "pIC50",
    "Numeric Readout": 4.27
  }
]

Q: Bench note: what pIC50 did "N#Cc1ccc(/C=C/S(=O)(=O)Nc2nc(-c3ccccc3)c(-c3ccccc3)s2)cc1" show?
Ans: 4.12

Q: Another: "O=S(=O)(/C=C/c1ccccc1Cl)Nc1nc(-c2ccccc2)c(-c2ccccc2)s1"
Ans: 4.59

Q: Try this compound too: "O=S(=O)(/C=C/c1ccccc1Cl)Nc1nc(-c2ccc(Cl)cc2)cs1"
Ans: 4.05

Q: Next compound up: "CCCc1sc(NS(=O)(=O)/C=C/c2ccc(C)cc2)nc1-c1ccc(C(F)(F)F)cc1"
Ans: 4.70

Q: Another compound: "O=S(=O)(/C=C/c1ccc(C(F)(F)F)cc1)Nc1nc(-c2ccccc2)c(-c2ccccc2)s1"
Ans: 4.47

These entries and their values trace back to ChEMBL document CHEMBL1134159.
